Tested on: Rattus norvegicus
ASSAY_PROCEDURE: In vivo agonist activity at angiotensin 2 receptor in ganglion-blocked vagotomized rat assessed as rise in blood pressure at 250 ng/kg/min compound infused for 10 mins
Type: functional
Non-standard residues stand in square brackets, D forms with d. Residues, ends and D or L forms follow the SMILES beside them. Sar = CNCC(=O)O
Listing of recorded Activity by entry.

MOLECULE	MEASUREMENT_TARGET	UNIT_TEXT	Activity
CC[C@H](C)[C@H](NC(=O)[C@H](Cc1ccc(O)cc1)NC(=O)[C@@H](NC(=O)[C@H](CCCN=C(N)N)NC(=O)CNC)C(C)C)C(=O)N[C@@H](Cc1c[nH]cn1)C(=O)N1CCC[C@H]1C(=O)N[C@H](C(=O)O)[C@@H](C)O (H-[Sar]RVYIHPT-OH)	Rattus norvegicus	mmHg	9.66
CC[C@H](C)[C@H](NC(=O)[C@@H]1CCCN1C(=O)[C@H](Cc1c[nH]cn1)NC(=O)[C@@H](NC(=O)[C@H](Cc1ccc(O)cc1)NC(=O)[C@@H](NC(=O)[C@H](CCCN=C(N)N)NC(=O)CNC)C(C)C)[C@@H](C)CC)C(=O)O	Rattus norvegicus	mmHg	18.27

====

Listing of recorded Activity by entry.
System: Rattus norvegicus
ASSAY_PROCEDURE: In vivo agonist activity at angiotensin 2 receptor in ganglion-blocked vagotomized rat assessed as rise in blood pressure at 250 ng/kg/min compound infused for 10 mins
Format: functional
Non-standard residues stand in square brackets, D forms with d. Residues, ends and D or L forms follow the SMILES beside them. Sar = CNCC(=O)O

COMPOUND	UNIT_TEXT	Activity
CC[C@H](C)[C@H](NC(=O)[C@H](Cc1ccc(O)cc1)NC(=O)[C@@H](NC(=O)CN(C)C(=O)CNC)C(C)C)C(=O)N[C@@H](Cc1c[nH]cn1)C(=O)N1CCC[C@H]1C(=O)N[C@H](C(=O)O)[C@@H](C)O (H-[Sar][Sar]VYIHPT-OH)	mmHg	7
CC[C@H](C)[C@H](NC(=O)[C@H](Cc1ccc(O)cc1)NC(=O)[C@@H](NC(=O)[C@H](CCCNC(=N)N)NC(=O)CNC)C(C)C)C(=O)N[C@@H](Cc1cnc[nH]1)C(=O)N1CCC[C@H]1C(=O)N[C@H](C(=O)O)[C@@H](C)OC	mmHg	15.88
CC[C@H](C)[C@H](NC(=O)[C@@H]1CCCN1C(=O)[C@H](Cc1c[nH]cn1)NC(=O)[C@@H](NC(=O)[C@H](Cc1ccc(O)cc1)NC(=O)[C@@H](NC(=O)[C@H](CCCN=C(N)N)NC(=O)CNC)C(C)C)[C@@H](C)OC)C(=O)O (H-[Sar]RVYT(Me)HPI-OH)	mmHg	18.83
CC[C@H](C)[C@H](NC(=O)[C@H](Cc1ccc(O)cc1)NC(=O)[C@@H](NC(=O)[C@H](CCCN=C(N)N)NC(=O)CNC)C(C)C)C(=O)N[C@@H](Cc1c[nH]cn1)C(=O)N1CCC[C@H]1C(=O)N[C@@H](C)C(=O)O	mmHg	16.88

====

Listing of recorded pA2 by entry.
ASSAY_PROCEDURE: Competitive antagonist at angiotensin 2 receptor in rabbit aorta assessed as rightward shift in angiotensin-2 dose response curve for myotropic activity
Type: tissue-based, Oryctolagus cuniculus
Non-standard residues stand in square brackets, D forms with d. Residues, ends and D or L forms follow the SMILES beside them. Sar = CNCC(=O)O
REPORTED_METRIC: pA2

MOLECULE	REPORTED_METRIC	RESULT
CC[C@H](C)[C@H](NC(=O)[C@H](Cc1ccc(O)cc1)NC(=O)[C@@H](NC(=O)[C@H](CCCNC(=N)N)NC(=O)CNC)C(C)C)C(=O)N[C@@H](Cc1cnc[nH]1)C(=O)N1CCC[C@H]1C(=O)N[C@H](C(=O)O)[C@@H](C)OC	pA2	8.76
CC[C@H](C)[C@H](NC(=O)[C@@H]1CCCN1C(=O)[C@H](Cc1c[nH]cn1)NC(=O)[C@@H](NC(=O)[C@H](Cc1ccc(O)cc1)NC(=O)[C@@H](NC(=O)[C@H](CCCN=C(N)N)NC(=O)CNC)C(C)C)[C@@H](C)CC)C(=O)O	pA2	9.17
CC[C@H](C)[C@H](NC(=O)[C@H](Cc1ccc(O)cc1)NC(=O)[C@@H](NC(=O)[C@H](CCCN=C(N)N)NC(=O)CNC)C(C)C)C(=O)N[C@@H](Cc1c[nH]cn1)C(=O)N1CCC[C@H]1C(=O)N[C@H](C(=O)O)[C@@H](C)O (H-[Sar]RVYIHPT-OH)	pA2	8.79
CC[C@H](C)[C@H](NC(=O)[C@H](Cc1ccc(O)cc1)NC(=O)[C@@H](NC(=O)CN(C)C(=O)CNC)C(C)C)C(=O)N[C@@H](Cc1c[nH]cn1)C(=O)N1CCC[C@H]1C(=O)N[C@H](C(=O)O)[C@@H](C)O (H-[Sar][Sar]VYIHPT-OH)	pA2	8.78
